# Measurement protocol: Cell viability by MTT reduction test in N2a cells, with and without Aβ1-42 prefibrillar aggregates
# Type: cell-based, mouse
# Run conditions: mouse, N2a (ECACC) neuroblastoma cells; read-out: Cell viability (MTT test), % respect to controls
Readout kind: viability at 48 h, 2 µM (%)
Dear colleague, please return just the value in %, with no unit written.

Query: Entry C/C=C1/C(O)OC=C(C(=O)OC)[C@H]1CC(=O)OCCc1ccc(O)c(O)c1 (mixture of isomers) : reported viability at 48 h, 2 µM = ?
Result: 98

All figures here come from patent US20200093929A1.
